# shrunken log2 fold change listing for each entry below
# Tested on: Escherichia coli TOP10
# protocol: shrunken log2 fold change of peptide-encoding DNA abundance (4.5 h post-induction vs induction); higher = less antimicrobial activity (less host growth inhibition)
# condition_set: time post-induction: 4.5 h; library: site-saturation at positions 5, 18, 19, 20
Lab note: write the figure by itself, no unit.

Worked set:
RRIRHRPPRLPRPRPRPVYQPRP ... -0.359
RRIRDRPPRLPRPRPRPYSKPRP ... 0.0519
RRIRVRPPRLPRPRPRPHYFPRP ... -0.00578
RRIRDRPPRLPRPRPRPSECPRP ... -0.043
RRIRDRPPRLPRPRPRPTHFPRP ... -0.0613
RRIRRRPPRLPRPRPRPNGKPRP ... 0.02
RRIRWRPPRLPRPRPRPELCPRP ... 0.579
RRIRTRPPRLPRPRPRPRDYPRP ... 0.104

Requested read-out: shrunken log2 fold change. Entry: `RRIRWRPPRLPRPRPRPMLHPRP`
-0.17

Requested read-out: shrunken log2 fold change. Entry: `RRIRYRPPRLPRPRPRPNLCPRP`
-1.35

Requested read-out: shrunken log2 fold change. Entry: `RRIRGRPPRLPRPRPRPYMFPRP`
0.221

Requested read-out: shrunken log2 fold change. Entry: `RRIRSRPPRLPRPRPRPWLRPRP`
-0.241

Requested read-out: shrunken log2 fold change. Entry: `RRIRNRPPRLPRPRPRPEKRPRP`
-0.0252

Requested read-out: shrunken log2 fold change. Entry: `RRIRDRPPRLPRPRPRPDVYPRP`
-0.00822

Requested read-out: shrunken log2 fold change. Entry: `RRIRSRPPRLPRPRPRPFMVPRP`
-0.337

----------
# Tested on: Escherichia coli TOP10
# protocol: shrunken log2 fold change of peptide-encoding DNA abundance (4.5 h post-induction vs induction); higher = less antimicrobial activity (less host growth inhibition)
# condition_set: time post-induction: 4.5 h; library: site-saturation at positions 5, 18, 19, 20
result_type: shrunken log2 fold change
Lab note: write the figure by itself, no unit.

RRIRTRPPRLPRPRPRPSKVPRP ... -0.0295
RRIRFRPPRLPRPRPRPHWGPRP ... -0.0695
RRIRARPPRLPRPRPRPCNEPRP ... -0.0554
RRIRQRPPRLPRPRPRPSPTPRP ... 0.292
RRIRDRPPRLPRPRPRPGWQPRP ... 0.22

Now, please, on to the next sequence.
Escherichia coli TOP10 / shrunken log2 fold change / `RRIRVRPPRLPRPRPRPTLTPRP` : value?
-0.0107

----------
# System: Escherichia coli TOP10
# protocol: shrunken log2 fold change of peptide-encoding DNA abundance (4.5 h post-induction vs induction); higher = less antimicrobial activity (less host growth inhibition)
# condition_set: time post-induction: 4.5 h; library: site-saturation at positions 5, 18, 19, 20
Respond with Y for shrunken log2 fold change values of 0.08 and above, N for values below.

Please review the following examples before continuing.
RRIRCRPPRLPRPRPRPQKHPRP ... N
RRIRIRPPRLPRPRPRPWVDPRP ... N
RRIRQRPPRLPRPRPRPNRTPRP ... N
RRIRARPPRLPRPRPRPPLCPRP ... Y
RRIRQRPPRLPRPRPRPHEDPRP ... N

Threshold query (shrunken log2 fold change >= 0.08) on `RRIRDRPPRLPRPRPRPGYPPRP`
N

Threshold query (shrunken log2 fold change >= 0.08) on `RRIRHRPPRLPRPRPRPHHWPRP`
N

Threshold query (shrunken log2 fold change >= 0.08) on `RRIRHRPPRLPRPRPRPFYPPRP`
N

Threshold query (shrunken log2 fold change >= 0.08) on `RRIRLRPPRLPRPRPRPLNKPRP`
N

----------
# Test system: Escherichia coli TOP10
# protocol: shrunken log2 fold change of peptide-encoding DNA abundance (4.5 h post-induction vs induction); higher = less antimicrobial activity (less host growth inhibition)
# condition_set: time post-induction: 4.5 h; library: site-saturation at positions 5, 18, 19, 20
Respond with y for shrunken log2 fold change values of 0.05 and above, n for values below.

RRIRHRPPRLPRPRPRPHPTPRP ... n
RRIRERPPRLPRPRPRPNKNPRP ... y
RRIRWRPPRLPRPRPRPHYHPRP ... n
RRIRERPPRLPRPRPRPAIGPRP ... n
RRIRMRPPRLPRPRPRPWWCPRP ... y

Threshold query (shrunken log2 fold change >= 0.05) on `RRIRQRPPRLPRPRPRPAHGPRP`
y

Threshold query (shrunken log2 fold change >= 0.05) on `RRIRKRPPRLPRPRPRPQGMPRP`
n

Threshold query (shrunken log2 fold change >= 0.05) on `RRIRPRPPRLPRPRPRPNVQPRP`
y

----------
# Test system: Escherichia coli TOP10
# protocol: shrunken log2 fold change of peptide-encoding DNA abundance (4.5 h post-induction vs induction); higher = less antimicrobial activity (less host growth inhibition)
# condition_set: time post-induction: 4.5 h; library: site-saturation at positions 5, 18, 19, 20
result_type: shrunken log2 fold change
Lab note: write the figure by itself, no unit.

Worked set:
RRIRQRPPRLPRPRPRPHPGPRP ... 0.125
RRIRARPPRLPRPRPRPWFWPRP ... 0.544
RRIRSRPPRLPRPRPRPAINPRP ... -0.131
RRIRWRPPRLPRPRPRPIFIPRP ... -0.592
RRIRNRPPRLPRPRPRPMADPRP ... 0.0252
RRIRHRPPRLPRPRPRPPFHPRP ... -0.119
RRIRKRPPRLPRPRPRPAQPPRP ... 0.764
RRIRRRPPRLPRPRPRPAMCPRP ... 0.319

Requested read-out: shrunken log2 fold change. Entry: `RRIRERPPRLPRPRPRPVIHPRP`
-0.106

Requested read-out: shrunken log2 fold change. Entry: `RRIRNRPPRLPRPRPRPETHPRP`
-0.0861

Requested read-out: shrunken log2 fold change. Entry: `RRIRNRPPRLPRPRPRPLLPPRP`
0.0144

Requested read-out: shrunken log2 fold change. Entry: `RRIRSRPPRLPRPRPRPFFMPRP`
-0.288

Requested read-out: shrunken log2 fold change. Entry: `RRIRTRPPRLPRPRPRPQRIPRP`
-0.131

Requested read-out: shrunken log2 fold change. Entry: `RRIRRRPPRLPRPRPRPPHGPRP`
0.596

Requested read-out: shrunken log2 fold change. Entry: `RRIRDRPPRLPRPRPRPMTIPRP`
0.0371

Requested read-out: shrunken log2 fold change. Entry: `RRIRERPPRLPRPRPRPFINPRP`
-0.991

Requested read-out: shrunken log2 fold change. Entry: `RRIRCRPPRLPRPRPRPFSHPRP`
-0.608

Requested read-out: shrunken log2 fold change. Entry: `RRIRVRPPRLPRPRPRPHAIPRP`
-0.0728

Requested read-out: shrunken log2 fold change. Entry: `RRIRDRPPRLPRPRPRPKGDPRP`
0.0039

Requested read-out: shrunken log2 fold change. Entry: `RRIRPRPPRLPRPRPRPIGKPRP`
-0.156

----------
# Test system: Escherichia coli TOP10
# protocol: shrunken log2 fold change of peptide-encoding DNA abundance (4.5 h post-induction vs induction); higher = less antimicrobial activity (less host growth inhibition)
# condition_set: time post-induction: 4.5 h; library: site-saturation at positions 5, 18, 19, 20
Respond with YES for shrunken log2 fold change values of 0.03 and above, NO for values below.

RRIRYRPPRLPRPRPRPALFPRP ... NO
RRIRERPPRLPRPRPRPCAFPRP ... NO
RRIRVRPPRLPRPRPRPQKLPRP ... NO
RRIRCRPPRLPRPRPRPPVFPRP ... YES
RRIRARPPRLPRPRPRPIAYPRP ... YES
RRIRFRPPRLPRPRPRPVWHPRP ... NO
RRIRQRPPRLPRPRPRPYETPRP ... NO
RRIRDRPPRLPRPRPRPSTMPRP ... YES
RRIRHRPPRLPRPRPRPDLYPRP ... NO
RRIRMRPPRLPRPRPRPHHPPRP ... NO

Threshold query (shrunken log2 fold change >= 0.03) on `RRIRWRPPRLPRPRPRPAPMPRP`
YES

Threshold query (shrunken log2 fold change >= 0.03) on `RRIRARPPRLPRPRPRPLCHPRP`
YES

Threshold query (shrunken log2 fold change >= 0.03) on `RRIRPRPPRLPRPRPRPTKFPRP`
NO

Threshold query (shrunken log2 fold change >= 0.03) on `RRIRWRPPRLPRPRPRPASLPRP`
YES

Threshold query (shrunken log2 fold change >= 0.03) on `RRIRHRPPRLPRPRPRPCHYPRP`
NO

----------
# shrunken log2 fold change listing for each entry below
# Tested on: Escherichia coli TOP10
# protocol: shrunken log2 fold change of peptide-encoding DNA abundance (4.5 h post-induction vs induction); higher = less antimicrobial activity (less host growth inhibition)
# condition_set: time post-induction: 4.5 h; library: site-saturation at positions 5, 18, 19, 20
Lab note: write the figure by itself, no unit.

Worked set:
RRIRRRPPRLPRPRPRPHEPPRP ... -0.0636
RRIRKRPPRLPRPRPRPACAPRP ... 1
RRIRERPPRLPRPRPRPIVVPRP ... -0.29
RRIRCRPPRLPRPRPRPAHLPRP ... -0.104
RRIRARPPRLPRPRPRPHYFPRP ... 0.0061

Escherichia coli TOP10 / shrunken log2 fold change / `RRIRQRPPRLPRPRPRPHTRPRP` : value?
0.107

Escherichia coli TOP10 / shrunken log2 fold change / `RRIRRRPPRLPRPRPRPGKNPRP` : value?
0.16

Escherichia coli TOP10 / shrunken log2 fold change / `RRIRRRPPRLPRPRPRPFWPPRP` : value?;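 also: peptides expressed intracellularly from a pBAD plasmid library in pooled LB shake-flask culture, induced with 0.3% L-arabinose, DNA abundance read by NGS, three biological replicates, DESeq2 with apeglm shrinkage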
0.312
